Record form. Attribute: melting point. Fill in for each entry.

Exercise: Would you kindly share the measured melting point for `Nc1nc2c(ncn2COCCCP(=O)(O)O)c(=O)[nH]1` ?
Key: 202 °C

Exercise: `O=C(O)c1c(C(O)=S)cc([N+](=O)[O-])cc1-c1ccccc1` , same question.
Key: 182 to 184 °C

Exercise: `CCOCc1nc2c(N)nc3ccccc3c2n1CCOCC#Cc1ccccc1` , same question.
Key: 111 to 112 °C

Exercise: `Cc1cc(C(C)(C)C)cc(C)c1SSc1c(C)cc(C(C)(C)C)cc1C` , same question.
Key: 127 to 128 °C

Exercise: `CNC(=O)c1ccc(C=CC(=O)NCC(=O)N(C)c2ccc(Cl)c(COc3cccc4ccc(C)nc34)c2)cc1` , same question.
Key: 221 to 228 °C

Exercise: `CCn1cc(C(=O)O)c(=O)c2cc(F)c(S(=O)(=O)CC)nc21` , same question.
Key: 249 to 252 °C

Exercise: `O=S(=O)(Cc1ccccc1)c1nnnn1Cc1ccccc1` , same question.
Key: 94 to 96 °C

Exercise: `c1ccc(C(c2ccccc2)N2CCN(CCCSc3ccc4nncn4n3)CC2)cc1` , same question.
Key: 79 to 80 °C

Exercise: S=C1NCC(C2=CCC=CC2)N1 (stereo unspecified) , same question.
Key: 165 to 167 °C

Exercise: `CCNc1cc(Oc2cccc(C(F)(F)F)c2)nc(C(=O)NN=CC(F)(F)C(F)(F)F)c1` , same question.
Key: 101 to 102 °C

Exercise: CC(=O)NCC1(C)OCCc2c1[nH]c1ccccc21 (stereo unspecified) , same question.
Key: 100 to 102 °C

Exercise: `O=C(Cc1ccccc1C(=O)O)Nc1cccc(/C=C/c2nc(C3CCCCCCC3)cs2)c1` , same question.
Key: 180 to 182 °C

Exercise: `COc1cc2[nH]c(=O)nc(C)c2c(C)c1OC` , same question.
Key: 78 to 81 °C

Exercise: `CCOc1nc2cc(N)ccc2c(=O)o1` , same question.
Key: 185 to 187 °C

Exercise: `N#Cc1c[nH]cc1-c1cccc(Cl)c1F` , same question.
Key: 178 °C

Exercise: Cc1ccc(C(=O)C2=C(O)C(=O)N(c3ncc(S(C)(=O)=O)s3)C2c2ccc(C(C)C)cc2)cc1 (stereo unspecified) , same question.
Key: 269 to 271 °C

Exercise: `N#CCc1nn2c(C(F)(F)F)cc(-c3ccc(F)c(Cl)c3)nc2c1C#N` , same question.
Key: 185 °C

Exercise: `Cc1cccc(Nc2c(N)cc(C(=O)O)cc2S(N)(=O)=O)c1` , same question.
Key: 280 to 282 °C

Exercise: `COC(=O)C=Cc1ccc(OCC(C)=O)cc1` , same question.
Key: 117 to 118 °C

Exercise: `CCCn1c(COCC)nc2c(N)nc3cc(OC4CCN(C(C)=O)CC4)ccc3c21` , same question.
Key: 178 to 180 °C

Exercise: `Nc1ncc(Cc2ccc3c(c2)OCO3)c(N)n1` , same question.
Key: 248 to 255 °C
